# Test description: Solubility check of 20 wt % solutions in organic solvents
# Type: physicochemical
# Parameters: key: A: the compound dissolves at room temperature; B: the compound does not dissolve at room temperature but dissolves when heated to 60° C.; the compound does not dissolve even when heated to 60° C
# Measurement setup: 20 wt % solution in trichloroethane; room temperature or heated to 60° C.
# Procedure: 20 wt % solutions of each of the compounds to be evaluated in chloroform, trichloroethane, cyclopentanone, methyl ethyl ketone (MEK), methyl isobutyl ketone (MIBK), and toluene were prepared to check the solubilities of the compound to be evaluated.

Compound	Results of Solubility Trichloroethane
C=CC(=O)OCCOCCOCCOc1ccc(OC(=O)C2CCC(COc3ccc(OCC4CCC(C(=O)Oc5ccc(OCCOCCOCCOC(=O)C=C)cc5)CC4)c(/C=N/N(CCCCCC)c4nc5ccccc5s4)c3)CC2)cc1 (stereo not shown)	A
C=CC(=O)OCCCCCCOc1ccc(OC(=O)C2CCC(C(=O)Oc3ccc(C4CCC(C5CCC(CCC)CC5)CC4)cc3/C=N/N(CCOCCOC)c3nc4ccccc4s3)CC2)cc1 (stereo not shown)	B
C=CC(=O)OCCCCCCOc1ccc(OC(=O)C2CCC(C(=O)Oc3ccc(OC(=O)C4CCC(C(=O)Oc5ccc(OCCCCCCOC(=O)C=C)cc5)CC4)c4sc(-c5ccc([N+](=O)[O-])cc5)nc34)CC2)cc1 (stereo not shown) [Compound R-2, reference compound]	B
C=CC(=O)OCCCOc1ccc(OC(=O)C2CCC(COc3ccc(OCC4CCC(C(=O)Oc5ccc(OCCCOC(=O)C=C)cc5)CC4)c(/C=N/N(CCOCCOC)c4nc5ccccc5s4)c3)CC2)cc1 (stereo not shown)	A
C=CC(=O)OCCCCCCOc1ccc(OC(=O)C2CCC(COc3ccc(-c4ccc(CCC)cc4)c(/C=N/N(CCOCCOC)c4nc5ccccc5s4)c3)CC2)cc1 (stereo not shown)	A
C=CC(=O)OCCCCCCOc1ccc(OC(=O)C2CCC(C(=O)Oc3ccc(C4CCC(CCC)CC4)cc3/C=N/N(CCOCCOC)c3nc4ccccc4s3)CC2)cc1 (stereo not shown)	A
C=CC(=O)OCCCCOC(=O)C1CCC(C(=O)OC2CCC(C(=O)Oc3ccc(OC(=O)C4CCC(OC(=O)C5CCC(C(=O)OCCCCOC(=O)C=C)CC5)CC4)c4c3SC(=C(C#N)C(=O)OCCOCCOC(=O)C=C)S4)CC2)CC1 (stereo not shown)	A
C=C(C)C(=O)OCCCCCCOc1ccc(OC(=O)C2CCC(COc3ccc(OCC4CCC(C(=O)Oc5ccc(OCCCCCCOC(=O)C(=C)C)cc5)CC4)c(/C=N/N(CCOCCOC)c4nc5ccccc5s4)c3)CC2)cc1 (stereo not shown)	A
C=CC(=O)OCCCCCCOc1ccc(OC(=O)C2CCC(COc3ccc(OCC4CCC(C(=O)Oc5ccc(OCCCCCCOC(=O)C=C)cc5)CC4)c(/C=N/N(CCOCCOCCOC(=O)C=C)c4nc5ccccc5s4)c3)CC2)cc1 (stereo not shown)	A
C=CC(=O)OCCOCCOCCOc1ccc(OC(=O)C2CCC(C(=O)Oc3ccc(C4CCC(C5CCC(CCC)CC5)CC4)cc3/C=N/N(CCCCCC)c3nc4ccccc4s3)CC2)cc1 (stereo not shown)	B
